Measured target: Mitogen-activated protein kinase 9 (Homo sapiens) (UniProt P45984)
Sequence (P45984 whole entry, looked up): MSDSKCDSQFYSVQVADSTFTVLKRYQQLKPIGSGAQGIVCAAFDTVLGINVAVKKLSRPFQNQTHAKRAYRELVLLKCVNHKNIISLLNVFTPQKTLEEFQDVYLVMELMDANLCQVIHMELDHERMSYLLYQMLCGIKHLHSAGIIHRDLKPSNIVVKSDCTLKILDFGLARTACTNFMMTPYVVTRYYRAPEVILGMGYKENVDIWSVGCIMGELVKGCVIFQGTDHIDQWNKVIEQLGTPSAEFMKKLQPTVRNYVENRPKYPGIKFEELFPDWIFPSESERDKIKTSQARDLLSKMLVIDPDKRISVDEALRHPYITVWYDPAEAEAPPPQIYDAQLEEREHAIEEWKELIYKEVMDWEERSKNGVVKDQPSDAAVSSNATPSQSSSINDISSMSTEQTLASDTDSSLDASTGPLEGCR
Test parameters: at 10 µM
Description: Millipore: Percentage of residual kinase activity of MAPK9 at 10uM relative to control. Control inhibitor: Jnk Inhibitor II at 100.0uM. Buffer: 50 mM Tris pH 7.5, 0.1 mM EGTA, 0.1% ?-mercaptoethanol
Assay endpoint: residual activity
Please answer using the number first and the unit second.

Some molecules with known residual activity results, for comparison:
>>> print(df.to_string())
                                   molecule     assay_endpoint  result
0  CN([C@@H](Cc1ccc(OS(=O)(=O)c2cccc3cnccc23)cc1)C(=O)N1CCN(c2ccccc2)CC1)S(=O)(=O)c1cccc2cnccc12  residual activity    114%
1  O=C1C(Cl)=C(N2C(=O)CCC2=O)C(=O)c2ccccc21  residual activity    102%
2  COc1cc2c(cc1OC)-c1n[nH]c(Nc3cccc(F)c3)c1C2  residual activity     69%

Identify the measured residual activity of Fc1ccc(-c2nc3n(c2-c2ccncc2)CCS3)cc1 for Mitogen-activated protein kinase 9 (Homo sapiens) (UniProt P45984).
20%

Identify the measured residual activity of CC(C)c1nn(-c2c(Cl)cccc2Cl)c2nc(Cc3ccc(OCCO)cc3)[nH]c(=O)c12 for Mitogen-activated protein kinase 9 (Homo sapiens) (UniProt P45984).
86%

Identify the measured residual activity of O=C1Cc2c([nH]c3ccc(Br)cc23)-c2ccccc2N1 for Mitogen-activated protein kinase 9 (Homo sapiens) (UniProt P45984).
97%

Identify the measured residual activity of CCCCc1c(-c2ccc(OC)cc2)[nH]c2nccnc12 for Mitogen-activated protein kinase 9 (Homo sapiens) (UniProt P45984).
109%

Identify the measured residual activity of COc1ccc(-c2cnc3c(-c4ccsc4)cnn3c2)cc1 for Mitogen-activated protein kinase 9 (Homo sapiens) (UniProt P45984).
100%

Identify the measured residual activity of Nc1nc(Nc2ccc(S(N)(=O)=O)cc2)nn1C(=O)c1c(F)cccc1F for Mitogen-activated protein kinase 9 (Homo sapiens) (UniProt P45984).
48%

Identify the measured residual activity of O=C1NC(=O)C(c2cn(CCCO)c3ncccc23)=C1c1cnccn1 for Mitogen-activated protein kinase 9 (Homo sapiens) (UniProt P45984).
80%

Identify the measured residual activity of O=C1NC(=O)c2c1c1c3ccccc3[nH]c1n1cncc21 for Mitogen-activated protein kinase 9 (Homo sapiens) (UniProt P45984).
49%

Identify the measured residual activity of O=C1Cc2c([nH]c3ccc([N+](=O)[O-])cc23)-c2ccccc2N1 for Mitogen-activated protein kinase 9 (Homo sapiens) (UniProt P45984).
101%

Identify the measured residual activity of O=c1cc(N2CCNCC2)oc2c(-c3ccccc3)cccc12 for Mitogen-activated protein kinase 9 (Homo sapiens) (UniProt P45984).
97%

Identify the measured residual activity of O=C1NC(=O)C(c2cn(CCCn3ccnc3)c3ccccc23)=C1Nc1ccccc1 for Mitogen-activated protein kinase 9 (Homo sapiens) (UniProt P45984).
80%

Identify the measured residual activity of Nc1ncnc2c1cnn2-c1ccccc1 for Mitogen-activated protein kinase 9 (Homo sapiens) (UniProt P45984).
95%

====

Measured target: Ribosomal protein S6 kinase alpha-2 (Homo sapiens) (UniProt Q15349)
Sequence (Q15349 whole entry): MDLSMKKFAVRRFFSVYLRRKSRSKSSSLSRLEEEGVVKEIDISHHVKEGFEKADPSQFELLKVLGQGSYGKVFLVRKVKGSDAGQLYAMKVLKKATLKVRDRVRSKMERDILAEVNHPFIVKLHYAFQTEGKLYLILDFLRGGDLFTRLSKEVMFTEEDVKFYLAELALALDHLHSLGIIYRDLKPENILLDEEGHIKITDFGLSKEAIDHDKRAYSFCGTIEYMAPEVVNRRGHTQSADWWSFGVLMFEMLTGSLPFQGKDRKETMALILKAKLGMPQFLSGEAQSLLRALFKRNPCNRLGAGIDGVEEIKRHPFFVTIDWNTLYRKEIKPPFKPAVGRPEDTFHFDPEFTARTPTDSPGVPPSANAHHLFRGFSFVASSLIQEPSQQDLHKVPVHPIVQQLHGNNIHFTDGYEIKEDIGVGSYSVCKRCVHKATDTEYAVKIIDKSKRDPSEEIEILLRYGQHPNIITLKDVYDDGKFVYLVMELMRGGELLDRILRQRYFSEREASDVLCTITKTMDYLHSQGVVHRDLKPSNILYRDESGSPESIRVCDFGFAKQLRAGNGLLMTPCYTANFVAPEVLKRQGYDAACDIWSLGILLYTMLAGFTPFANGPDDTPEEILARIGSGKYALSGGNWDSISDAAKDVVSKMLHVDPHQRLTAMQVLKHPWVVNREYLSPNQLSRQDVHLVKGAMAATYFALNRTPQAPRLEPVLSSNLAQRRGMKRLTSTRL
Test parameters: at 1 µM
In this section, each of the compounds is paired with its reported residual activity.
Expressed in %, but write only the number.

In [3]: df
Out[3]:
                         line_notation  measurement_units  result_number
0  CCCCc1c(-c2ccc(OC)cc2)[nH]c2nccnc12                  %             70

Identify the measured residual activity of Nc1nccc(-c2c(-c3ccc(F)cc3)ncn2C2CCNCC2)n1 for Ribosomal protein S6 kinase alpha-2 (Homo sapiens) (UniProt Q15349).
83

Identify the measured residual activity of O=C1NC(=O)C(c2c[nH]c3ccccc23)=C1c1c[nH]c2ccccc12 for Ribosomal protein S6 kinase alpha-2 (Homo sapiens) (UniProt Q15349).
5

Identify the measured residual activity of Cn1sc(=O)n(Cc2ccccc2)c1=O for Ribosomal protein S6 kinase alpha-2 (Homo sapiens) (UniProt Q15349).
99

Identify the measured residual activity of COc1cc2ncnc(Nc3cccc(Cl)c3)c2cc1OC for Ribosomal protein S6 kinase alpha-2 (Homo sapiens) (UniProt Q15349).
87

Identify the measured residual activity of CCN(CC)CCNC(=O)c1c(C)[nH]c(/C=C2\C(=O)Nc3ccc(Cl)cc32)c1C for Ribosomal protein S6 kinase alpha-2 (Homo sapiens) (UniProt Q15349).
9

====

Measured target: Receptor-type tyrosine-protein kinase FLT3 (Homo sapiens) (UniProt P36888)
Sequence (P36888 whole entry): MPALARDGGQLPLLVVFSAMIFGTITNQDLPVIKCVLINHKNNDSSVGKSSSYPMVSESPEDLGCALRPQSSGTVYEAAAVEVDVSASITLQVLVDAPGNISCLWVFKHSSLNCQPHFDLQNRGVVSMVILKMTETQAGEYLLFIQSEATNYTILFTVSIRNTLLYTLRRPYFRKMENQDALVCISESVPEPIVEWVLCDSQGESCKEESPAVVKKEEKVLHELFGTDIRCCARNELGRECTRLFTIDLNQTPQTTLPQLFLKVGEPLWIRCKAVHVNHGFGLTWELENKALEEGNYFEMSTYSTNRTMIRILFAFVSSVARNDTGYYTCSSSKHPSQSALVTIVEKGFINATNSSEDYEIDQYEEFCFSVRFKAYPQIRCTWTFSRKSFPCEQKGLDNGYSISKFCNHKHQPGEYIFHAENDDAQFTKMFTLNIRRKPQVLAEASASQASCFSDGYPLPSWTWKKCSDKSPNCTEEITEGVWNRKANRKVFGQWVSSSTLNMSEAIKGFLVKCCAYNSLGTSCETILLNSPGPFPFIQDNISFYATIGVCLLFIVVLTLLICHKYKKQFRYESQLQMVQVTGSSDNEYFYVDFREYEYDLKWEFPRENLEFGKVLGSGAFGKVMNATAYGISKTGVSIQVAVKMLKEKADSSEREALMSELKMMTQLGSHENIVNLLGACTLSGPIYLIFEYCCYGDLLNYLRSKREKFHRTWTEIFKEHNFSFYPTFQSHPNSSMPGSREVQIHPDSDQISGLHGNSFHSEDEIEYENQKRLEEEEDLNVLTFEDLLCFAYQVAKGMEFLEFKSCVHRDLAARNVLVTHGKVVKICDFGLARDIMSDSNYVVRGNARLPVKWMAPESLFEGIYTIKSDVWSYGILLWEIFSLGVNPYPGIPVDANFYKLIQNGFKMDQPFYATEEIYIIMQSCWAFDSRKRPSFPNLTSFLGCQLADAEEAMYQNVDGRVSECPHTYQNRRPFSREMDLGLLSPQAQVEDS
Test parameters: at 1 µM
In this section, each of the compounds is paired with its reported residual activity.
Expressed in %, but write only the number.

Some compounds with known residual activity results, for comparison:
                              line_notation  result_number
0  O=C(CCCc1ccc(-c2ccccc2F)cc1)Nc1ccc(O)cc1            101
1  O=C(c1cc2cc(O)ccc2[nH]1)c1cc2cc(O)ccc2[nH]1              0
2  CC(C)(C)n1nc(Cc2cccc3ccccc23)c2c(N)ncnc21            102

Item CCOC(=O)c1c(C)[nH]c(/C=C2\C(=O)Nc3ccccc32)c1C has what recorded residual activity?
6

Item Nc1ncnc2[nH]nc(Nc3ccc(F)cc3)c12 has what recorded residual activity?
114

Item CC(C)(C)c1nc2c3ccc(F)cc3c3c(=O)[nH]ccc3c2[nH]1 has what recorded residual activity?
45

Item O=C1NC(=O)C(c2cn(CCCO)c3ncccc23)=C1c1cnccn1 has what recorded residual activity?
57

====

In this section, each of the compounds is paired with its reported residual activity.
Measured target: Serine/threonine-protein kinase mTOR (Homo sapiens) (UniProt P42345)
Test parameters: at 1 µM
Expressed in %, but write only the number.

                                   compound  result_number
0          O=c1cc(N2CCOCC2)oc2c1ccc1ccccc12             95
1  N#C/C(=C1/Nc2ccccc2S1)c1ccnc(NCCc2cccnc2)n1             89
2          O=C(c1ccccc1)c1ccc(N2CCOCC2)cc1O             88
3  NCCNc1ncc(C(N)=O)c(Nc2cccc(C(F)(F)F)c2)n1            104
4  O=C(NC(NC(=S)Nc1ccc(F)c([N+](=O)[O-])c1)C(Cl)(Cl)Cl)C(c1ccccc1)c1ccccc1 (stereo not drawn)            102

Item O=c1cc(N2CCOCC2)oc2c(-c3ccccc3)cccc12 has what recorded residual activity?
24

Item CC(C)(C)n1nc(Cc2cccc3ccccc23)c2c(N)ncnc21 has what recorded residual activity?
98

====

Measured target: SRSF protein kinase 3 (Homo sapiens);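 further: residual kinase activity expressed as percent of uninhibited control, measured in MOPS buffer at pH 7.0 containing EDTA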
Test parameters: at 1 µM
Description: Millipore: Percentage of residual kinase activity of SRPK3 at 1uM relative to control. Control inhibitor: Phosphoric acid* at 0.3uM. Buffer: 8 mM MOPS pH 7.0, 0.2 mM EDTA
Assay endpoint: residual activity
Please answer using the number first and the unit second.

>>> print(df.to_string())
                           line_notation     assay_endpoint  result
0        Nc1ncnc2[nH]nc(Nc3ccc(F)cc3)c12  residual activity     98%
1      O=C(O)/C=C/c1cc(Br)c(Br)c(Br)c1Br  residual activity    124%
2  Cc1cc(C)c(/C=C2\C(=O)Nc3ccccc32)[nH]1  residual activity     99%
3    CCCCc1c(-c2ccc(OC)cc2)[nH]c2nccnc12  residual activity    102%

Item COc1cc2ncnc(Nc3cccc(Cl)c3)c2cc1OC has what recorded residual activity?
104%

====

Measured target: Tyrosine-protein kinase Fyn (Homo sapiens)
Test parameters: at 10 µM
Assay endpoint: residual activity
Please answer using the number first and the unit second.

In [3]: df
Out[3]:
                              line_notation  result
0  O=c1c(-c2ccc(F)cc2)c(-c2ccncc2)[nH]n1-c1ccc(Cl)cc1     66%
1  O=C1NC(=O)C(c2c[nH]c3ccccc23)=C1c1c[nH]c2ccccc12     29%
2  COc1cc2c(cc1OC)-c1n[nH]c(Nc3cccc(F)c3)c1C2      0%

Item COc1cc2ncnc(Nc3cccc(Cl)c3)c2cc1OC has what recorded residual activity?
6%

Item Cc1cc(C)c(/C=C2\C(=O)Nc3ccccc32)[nH]1 has what recorded residual activity?
19%

Item O=C1Nc2ccccc2/C1=C\c1c(Cl)[nH]c2ccccc12 has what recorded residual activity?
59%

Item COc1ccc(-c2cnc3c(-c4ccsc4)cnn3c2)cc1 has what recorded residual activity?
84%

Item CCCC(=O)Oc1ccc2[nH]c(C(=O)c3cc4ccccc4[nH]3)cc2c1 has what recorded residual activity?
89%

Item Oc1cccc(-c2nc(N3CCOCC3)c3oc4ncccc4c3n2)c1 has what recorded residual activity?
88%

Item O=C1C(Cl)=C(N2C(=O)CCC2=O)C(=O)c2ccccc21 has what recorded residual activity?
75%

Item Nc1ncnc2c1c(-c1ccc(Oc3ccccc3)cc1)cn2C1CCCC1 has what recorded residual activity?
0%

====

In this section, each of the compounds is paired with its reported residual activity.
Measured target: Protein-tyrosine kinase 2-beta (Homo sapiens) (UniProt Q14289)
Sequence (Q14289 whole entry, looked up): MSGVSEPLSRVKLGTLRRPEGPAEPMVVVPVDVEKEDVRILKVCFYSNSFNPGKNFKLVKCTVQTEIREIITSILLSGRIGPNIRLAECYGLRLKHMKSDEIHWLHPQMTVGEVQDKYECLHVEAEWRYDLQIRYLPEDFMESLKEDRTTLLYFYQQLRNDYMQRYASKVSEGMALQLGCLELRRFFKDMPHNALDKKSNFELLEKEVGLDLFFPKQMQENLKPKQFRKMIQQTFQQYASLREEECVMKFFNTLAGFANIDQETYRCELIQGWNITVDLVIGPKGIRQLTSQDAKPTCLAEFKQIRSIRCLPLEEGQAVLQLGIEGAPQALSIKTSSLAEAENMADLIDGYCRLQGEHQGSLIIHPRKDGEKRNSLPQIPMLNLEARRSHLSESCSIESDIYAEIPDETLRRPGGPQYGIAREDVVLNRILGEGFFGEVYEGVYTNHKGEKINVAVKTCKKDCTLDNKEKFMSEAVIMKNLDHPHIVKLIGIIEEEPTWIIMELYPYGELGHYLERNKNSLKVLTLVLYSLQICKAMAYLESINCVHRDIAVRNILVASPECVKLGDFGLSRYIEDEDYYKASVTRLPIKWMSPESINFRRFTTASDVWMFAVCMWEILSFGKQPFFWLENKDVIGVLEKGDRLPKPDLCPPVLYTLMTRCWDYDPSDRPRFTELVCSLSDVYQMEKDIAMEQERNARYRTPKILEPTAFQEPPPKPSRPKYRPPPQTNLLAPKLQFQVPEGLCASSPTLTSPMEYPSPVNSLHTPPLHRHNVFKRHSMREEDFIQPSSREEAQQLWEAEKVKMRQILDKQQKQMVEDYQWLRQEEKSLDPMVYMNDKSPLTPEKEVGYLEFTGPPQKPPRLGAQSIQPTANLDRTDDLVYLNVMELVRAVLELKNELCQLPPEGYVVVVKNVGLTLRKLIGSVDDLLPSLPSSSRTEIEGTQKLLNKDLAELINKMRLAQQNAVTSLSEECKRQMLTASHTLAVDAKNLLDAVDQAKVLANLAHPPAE
Test parameters: at 10 µM
Expressed in %, but write only the number.

Some compounds with known residual activity results, for comparison:
>>> df
                                   compound  result_number
0          O=c1cc(N2CCOCC2)oc2c1ccc1ccccc12            100
1        CCCCc1c(-c2ccc(O)cc2)[nH]c2nccnc12             26
2  O=C1Nc2ccc(Cl)cc2/C1=C/c1cc(Cl)c(O)c(Cl)c1             28
3    O=C1NC(=O)c2c1c1c3ccccc3[nH]c1n1cncc21             19
4  c1ccc(-c2cnc(Nc3ccc(OCCN4CCCC4)cc3)s2)cc1             43
5  CCN(CC)CCNC(=O)c1c(C)[nH]c(/C=C2\C(=O)Nc3ccc(Cl)cc32)c1C              3

Item CSc1nc(-c2ccc(F)cc2)c(-c2ccnc(NC(C)c3ccccc3)c2)[nH]1 (stereo unspecified) has what recorded residual activity?
85

Item O=C(Nc1nc2ccccc2n1CCN1CCOCC1)c1cccc([N+](=O)[O-])c1 has what recorded residual activity?
86

Item O=C1NC(=O)C(c2cn(CCCO)c3ncccc23)=C1c1cnccn1 has what recorded residual activity?
79

Item CC(C)[C@H](CO)Nc1nc(Nc2cc(N)cc(Cl)c2)c2ncn(C(C)C)c2n1 has what recorded residual activity?
7

Item O=C(Nc1ccc(Cl)cc1)c1ccccc1NCc1ccncc1 has what recorded residual activity?
74

Data provenance is ChEMBL document CHEMBL2218924.
